Target: AURKA (Homo sapiens)
Construct: endogenous in cells; host or cells: Jurkat cells
Sequence (O14965 1-403): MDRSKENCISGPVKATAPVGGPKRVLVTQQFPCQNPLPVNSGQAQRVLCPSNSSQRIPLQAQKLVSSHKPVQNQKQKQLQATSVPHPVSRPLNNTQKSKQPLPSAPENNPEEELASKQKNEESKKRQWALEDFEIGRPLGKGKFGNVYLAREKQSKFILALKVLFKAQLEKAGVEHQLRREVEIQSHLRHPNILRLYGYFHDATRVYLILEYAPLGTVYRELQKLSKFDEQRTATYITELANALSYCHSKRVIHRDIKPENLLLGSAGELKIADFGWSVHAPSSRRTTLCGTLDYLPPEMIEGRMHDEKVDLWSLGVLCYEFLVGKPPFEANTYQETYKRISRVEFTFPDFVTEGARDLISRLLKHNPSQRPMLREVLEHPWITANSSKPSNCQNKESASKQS
Type: cell-based
Conditions: 1 µM compound, Jurkat cells, 24 h, Table 2
quantity: Percentage of AURKA Degradation Induced by 1 µM Compound in Jurkat Cells

O=C1CCN(c2cccc(N3CCN(C4CN(c5cccc(Nc6ncc7c(n6)-c6ccc(Cl)cc6C(c6c(F)cccc6F)=NC7)c5)C4)CC3)c2)C(=O)N1 | +++ (Degradation > 70%)
O=C1CCN(c2cccc(N3CCN(CC#Cc4ccc(Nc5ncc6c(n5)-c5ccc(Cl)cc5C(c5c(F)cccc5F)=NC6)cc4)CC3)c2)C(=O)N1 | + (Degradation ≤ 30%)
O=C1CCN(c2cnc(N3CCN(CCN4Cc5cc(Nc6ncc7c(n6)-c6ccc(Cl)cc6C(c6c(F)cccc6F)=NC7)ccc5C4=O)CC3)s2)C(=O)N1 | + (Degradation ≤ 30%)
O=C1CCN(c2ccc(N3CCC(C4CCN(c5ccc(Nc6ncc7c(n6)-c6ccc(Cl)cc6C(c6c(F)cccc6F)=NC7)cc5)CC4)CC3)nc2)C(=O)N1 | +++ (Degradation > 70%)

###

Molecular target: AURKA (Homo sapiens)
Construct: endogenous in cells; host or cells: Jurkat cells
Type: cell-based
Conditions: 100 nM compound, Jurkat cells, 24 h, Table 1
quantity: Percentage of AURKA Degradation Induced by 100 nM Compound in Jurkat Cells

COc1cc(Nc2ncc3c(n2)-c2ccc(Cl)cc2C(c2c(F)cccc2OC)=NC3)ccc1C(=O)NCCN1CCN(c2ncc(N3CCC(=O)NC3=O)s2)CC1 [Compound A24] | +++ (Degradation > 70%)
O=C1CCN(c2ccc(N3CCN(CCNC(=O)c4ccc(Nc5ncc6c(n5)-c5ccc(Cl)cc5C(c5c(F)cccc5F)=NC6)cc4)CC34CC4)nc2)C(=O)N1 [Compound A66] | + (Degradation ≤ 30%)
COc1cc(Nc2ncc3c(n2)-c2ccc(Cl)cc2C(c2c(F)cccc2OC)=NC3)ccc1C(=O)NCCN1CCC(c2ccc(N3CCC(=O)NC3=O)cc2)CC1 [Compound A15] | +++ (Degradation > 70%)
COc1cc(Nc2ncc3c(n2)-c2ccc(Cl)cc2C(c2c(F)cccc2OC)=NC3)ccc1C(=O)N1CCC2(C1)CN(c1ccc(N3CCC(=O)NC3=O)cc1)C2 [Compound A44] | + (Degradation ≤ 30%)
COc1cc(Nc2ncc3c(n2)-c2ccc(Cl)cc2C(c2c(F)cccc2OC)=NC3)ccc1C(=O)NCCN1CCC(c2ccc(N3CCC(=O)NC3=O)cn2)CC1 [Compound A16] | +++ (Degradation > 70%)
COc1cccc(F)c1C1=NCc2cnc(Nc3ccc(C(=O)NC4CN(CC5CN(c6ccc(N7CCC(=O)NC7=O)cc6)C5)C4)cc3)nc2-c2ccc(Cl)cc21 [Compound A71] | +++ (Degradation > 70%)

Prompt: GET /values?readout=Percentage of AURKA Degradation Induced by 100 nM Compound in Jurkat Cells&item= O=C1CCN(c2cccc(N3CC(CN4CC(NC(=O)c5ccc(Nc6ncc7c(n6)-c6ccc(Cl)cc6C(c6c(F)cccc6F)=NC7)cc5)C4)C3)c2)C(=O)N1 [Compound A72]
Response: +++ (Degradation > 70%)

Prompt: GET /values?readout=Percentage of AURKA Degradation Induced by 100 nM Compound in Jurkat Cells&item= O=C1CCN(c2ccc(N3CC4(CCN(C(=O)c5ccc(Nc6ncc7c(n6)-c6ccc(Cl)cc6C(c6c(F)cccc6F)=NC7)cc5)C4)C3)cc2)C(=O)N1 [Compound A43]
Response: + (Degradation ≤ 30%)

Prompt: GET /values?readout=Percentage of AURKA Degradation Induced by 100 nM Compound in Jurkat Cells&item= COc1cc(Nc2ncc3c(n2)-c2ccc(Cl)cc2C(c2c(F)cccc2OC)=NC3)ccc1C(=O)NC1CCC2(CC1)CN(c1ccc(N3CCC(=O)NC3=O)cc1)C2 [Compound A57]
Response: +++ (Degradation > 70%)
